The measured values listed here are drawn from the RNAGym collection of RNA variant scans (doi:10.1073/pnas.2313332121).

B1: TPR 5TU (parent)
chain: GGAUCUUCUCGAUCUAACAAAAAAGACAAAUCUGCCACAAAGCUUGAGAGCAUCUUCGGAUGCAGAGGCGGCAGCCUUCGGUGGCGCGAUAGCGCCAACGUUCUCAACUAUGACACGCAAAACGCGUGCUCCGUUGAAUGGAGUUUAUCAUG

- Variants of: B1
- test summary: polymerase ribozyme fitness, log enrichment relative to wild type (log ratio); higher = more active; in vitro selection for triplet polymerase activity
Fewer inactive variants are shown than the library holds.
Task for the reader: assign each of the following variants its reported polymerase ribozyme fitness (log ratio).

Ask: Returns the measured polymerase ribozyme fitness (log ratio) for the input variant. Input: C57U C75U A107U U127C A150G
Reply: ≤ -4.2

Ask: Look at this variant and give its reported polymerase ribozyme fitness (log ratio). G34U U77G C87A A113C
Reply: ≤ -4.2

Ask: Quick one: polymerase ribozyme fitness (log ratio) of U9C A17U A89G A122G ?
Reply: ≤ -4.2

Ask: Sample C87G C105U A137C A150U — what was its polymerase ribozyme fitness (log ratio)?
Reply: ≤ -4.2

Ask: For U6G G86C U135G , what is its reported polymerase ribozyme fitness (log ratio)?
Reply: ≤ -4.2

Ask: I have this variant here, A12C C35A C85G C103G C118G G141C , and I need its recorded polymerase ribozyme fitness (log ratio).
Reply: ≤ -4.2

Ask: Entry under review: A21C C35A G84A G117A U127G . Reported polymerase ribozyme fitness (log ratio)?
Reply: ≤ -4.2

Ask: Returns the measured polymerase ribozyme fitness (log ratio) for the input variant. Input: G83A C85U A106C C132G G140A
Reply: ≤ -4.2

Ask: Given the variant C14U A16C C57G G83U C85U A107G G140C A142C , what is its reported polymerase ribozyme fitness (log ratio)?
Reply: ≤ -4.2

Ask: GET /values?readout=polymerase ribozyme fitness (log ratio)&item= U53G C93A C103G
Reply: ≤ -4.2

Ask: What does the record list as polymerase ribozyme fitness (log ratio) for G88U C149U ?
Reply: ≤ -4.2

Ask: Consider the variant shown here: C10A A22G G46A C54U C75G G83U C95A What is its recorded polymerase ribozyme fitness (log ratio)?
Reply: ≤ -4.2

Ask: Which measured polymerase ribozyme fitness (log ratio) value corresponds to A39U G48C G67A C85G G86U G88A G92A C118G ?
Reply: ≤ -4.2

Ask: State the recorded polymerase ribozyme fitness (log ratio) for this entry: C43U C75A C79U G86U C87U G117U A150C
Reply: ≤ -4.2

Ask: # query: polymerase ribozyme fitness (log ratio) of entry A39U C85G C96A A107G
Reply: ≤ -4.2

Ask: Name the reported polymerase ribozyme fitness (log ratio) value associated with the variant U15G G94C A115C C116G
Reply: -3.85

Ask: Look up polymerase ribozyme fitness (log ratio): C18U A29U G68A C85U
Reply: ≤ -4.2

Ask: # query: polymerase ribozyme fitness (log ratio) of entry A37C G83U
Reply: -0.441

Ask: Which polymerase ribozyme fitness (log ratio) reading was recorded for the variant C10G A17C C36U G48A A64U G88C C118G ?
Reply: ≤ -4.2

Ask: Sample C27U C43U C95U A119U G143C U144C — what was its polymerase ribozyme fitness (log ratio)?
Reply: -4.15

Ask: Look at this variant and give its reported polymerase ribozyme fitness (log ratio). A26U C96U C108G U127A
Reply: ≤ -4.2

Ask: Entry under review: G92C C105G . Reported polymerase ribozyme fitness (log ratio)?
Reply: -2.39

Ask: Which measured polymerase ribozyme fitness (log ratio) value corresponds to U33G A37U A60C C75U G94U C108U ?
Reply: ≤ -4.2

Ask: I have this variant here, U33G A73G , and I need its recorded polymerase ribozyme fitness (log ratio).
Reply: -0.513

Ask: Return reported polymerase ribozyme fitness (log ratio); argument: A29U U33C A52C G86A
Reply: ≤ -4.2

Ask: Query (variant): C95U U101G C105U C125U A142U ; field requested: polymerase ribozyme fitness (log ratio)
Reply: ≤ -4.2

Ask: Reported polymerase ribozyme fitness (log ratio) for U45A C75U U90A C93U A119U G141C : what is it?
Reply: ≤ -4.2

Ask: I am curious: what polymerase ribozyme fitness (log ratio) value has been reported for U56A G58A C87G G133U ?
Reply: ≤ -4.2

Ask: Which measured polymerase ribozyme fitness (log ratio) value corresponds to A22U A39U C57U G59A U101G U148C A150C ?
Reply: ≤ -4.2

Ask: // lookup polymerase ribozyme fitness (log ratio) for C35U A49G G88U C93G
Reply: ≤ -4.2

Ask: What measured polymerase ribozyme fitness (log ratio) goes with A12U G58U G83A C93A ?
Reply: ≤ -4.2

Ask: Returns the measured polymerase ribozyme fitness (log ratio) for the input variant. Input: A21U U31C A73G G94U A113U
Reply: -3.49

Ask: Item under review: C38U A41U G94A . Reported polymerase ribozyme fitness (log ratio)?
Reply: -1.15

Ask: So what does the record say about polymerase ribozyme fitness (log ratio) for A41C G83C ?
Reply: -0.571

Ask: Give the measured polymerase ribozyme fitness (log ratio) of A28U U56A G81A C95U .
Reply: ≤ -4.2

Ask: Could you share which polymerase ribozyme fitness (log ratio) value was measured for G50U C87U C96A ?
Reply: -1.48

Ask: If you can, please state the reported polymerase ribozyme fitness (log ratio) value of U77A U90A G133U A142C .
Reply: ≤ -4.2

Ask: Form field: reported polymerase ribozyme fitness (log ratio) of A39G G48A C51U U56C G59U A150C
Reply: ≤ -4.2

Ask: Look up polymerase ribozyme fitness (log ratio): C38U A47C A64C U78G G84C A97C C108U
Reply: ≤ -4.2

Ask: Please give the measured polymerase ribozyme fitness (log ratio) for this variant: C27G C72U G83U A91U C93U
Reply: ≤ -4.2

Ask: Data request, read-out polymerase ribozyme fitness (log ratio), for G50C C51U G92U
Reply: -2.09

Ask: Entry G59A C76A C85A G117A A122C has what polymerase ribozyme fitness (log ratio)?
Reply: -2.85

Ask: Query (variant): A20U U31C U109G ; field requested: polymerase ribozyme fitness (log ratio)
Reply: -0.957

Ask: Returns the measured polymerase ribozyme fitness (log ratio) for the input variant. Input: U61C C76A
Reply: -2.59

Ask: Tell me the measured polymerase ribozyme fitness (log ratio) of C85G G94U , please.
Reply: -0.835

Ask: Which value of polymerase ribozyme fitness (log ratio) has been reported for A39C G59U C76G U146G in the records?
Reply: ≤ -4.2

Ask: Endpoint output: polymerase ribozyme fitness (log ratio) of G50A A52C A97G G100A C114G G133U . Value?
Reply: ≤ -4.2
